Assay: Apparent lipid-water distribution coefficient
Assay type: physicochemical
Details: buffer pH 8.0; read-out: Apparent lipid-water distribution coefficient LogP
ENDPOINT_LABEL: logP

COMPOUND: CCCCCCCCCCCCCCCCCC(=O)N[C@@H](Cc1ccc(O)cc1)C(=O)[O-].[K+] [NsTyr-2K, N-stearoyl tyrosine potassium salt]
ENDPOINT_LABEL: logP
MEASURED: 1.14

---

Quick reference: AUC(0-t) of the listed items.
Assay: Absorption kinetics after intragastric administration
Format: in vivo
Conditions: both sexes, Sprague-Dawley (SD), rat, blood; SD rats, oral 200 mg/kg
ENDPOINT_LABEL: AUC(0-t) (ng·h/mL)

COMPOUND: CCCCCCCCCCCCCCCCCC(=O)N[C@@H](Cc1ccc(O)cc1)C(=O)[O-].[K+] [NsTyr-2K, N-stearoyl tyrosine potassium salt]
MEASURED: 3490
--
COMPOUND: CCCCCCCCCCCCCCCCCC(=O)N[C@@H](Cc1ccc(O)cc1)C(=O)O
MEASURED: 130

---

Test: Acute toxicity test
Conditions: mouse, in vivo; oral, Kunming mice
ENDPOINT_LABEL: LD50 at 15 days

COMPOUND: CCCCCCCCCCCCCCCCCC(=O)N[C@@H](Cc1ccc(O)cc1)C(=O)[O-].[K+] [NsTyr-2K, N-stearoyl tyrosine potassium salt]
ENDPOINT_LABEL: LD50 at 15 days
MEASURED: > 2000 mg/kg

---

Test: Apparent lipid-water distribution coefficient
Format: physicochemical
Conditions: buffer pH 6.0; read-out: Apparent lipid-water distribution coefficient LogP
ENDPOINT_LABEL: logP

COMPOUND: CCCCCCCCCCCCCCCCCC(=O)N[C@@H](Cc1ccc(O)cc1)C(=O)[O-].[K+] [NsTyr-2K, N-stearoyl tyrosine potassium salt]
MEASURED: 1.46

---

Assay: Equilibrium solubility, shake-flask method
Type: physicochemical
Conditions: 37 °C, aqueous buffer, thermodynamic from solid; pH 9.0; read-out: Equilibrium solubility in buffer solution

COMPOUND: CCCCCCCCCCCCCCCCCC(=O)N[C@@H](Cc1ccc(O)cc1)C(=O)[O-].[K+] [NsTyr-2K, N-stearoyl tyrosine potassium salt]
solubility thermodynamic, µg/mL: 370

---

Test: Apparent lipid-water distribution coefficient
Assay type: physicochemical

COMPOUND: CCCCCCCCCCCCCCCCCC(=O)N[C@@H](Cc1ccc(O)cc1)C(=O)[O-].[K+] [NsTyr-2K, N-stearoyl tyrosine potassium salt]
logP: 1.51

---

Quick reference: half-life of the listed items.
Assay: Absorption kinetics after intragastric administration
Assay type: in vivo
Conditions: both sexes, Sprague-Dawley (SD), rat, blood; SD rats, oral 200 mg/kg
ENDPOINT_LABEL: half-life (h)

COMPOUND: CCCCCCCCCCCCCCCCCC(=O)N[C@@H](Cc1ccc(O)cc1)C(=O)O
ENDPOINT_LABEL: half-life
MEASURED: 1.49
--
COMPOUND: CCCCCCCCCCCCCCCCCC(=O)N[C@@H](Cc1ccc(O)cc1)C(=O)[O-].[K+] [NsTyr-2K, N-stearoyl tyrosine potassium salt]
ENDPOINT_LABEL: half-life
MEASURED: 2.9
